Target: glucocorticoid receptor (Homo sapiens)
Construct: endogenous in cells
Sequence (P04150 1-777): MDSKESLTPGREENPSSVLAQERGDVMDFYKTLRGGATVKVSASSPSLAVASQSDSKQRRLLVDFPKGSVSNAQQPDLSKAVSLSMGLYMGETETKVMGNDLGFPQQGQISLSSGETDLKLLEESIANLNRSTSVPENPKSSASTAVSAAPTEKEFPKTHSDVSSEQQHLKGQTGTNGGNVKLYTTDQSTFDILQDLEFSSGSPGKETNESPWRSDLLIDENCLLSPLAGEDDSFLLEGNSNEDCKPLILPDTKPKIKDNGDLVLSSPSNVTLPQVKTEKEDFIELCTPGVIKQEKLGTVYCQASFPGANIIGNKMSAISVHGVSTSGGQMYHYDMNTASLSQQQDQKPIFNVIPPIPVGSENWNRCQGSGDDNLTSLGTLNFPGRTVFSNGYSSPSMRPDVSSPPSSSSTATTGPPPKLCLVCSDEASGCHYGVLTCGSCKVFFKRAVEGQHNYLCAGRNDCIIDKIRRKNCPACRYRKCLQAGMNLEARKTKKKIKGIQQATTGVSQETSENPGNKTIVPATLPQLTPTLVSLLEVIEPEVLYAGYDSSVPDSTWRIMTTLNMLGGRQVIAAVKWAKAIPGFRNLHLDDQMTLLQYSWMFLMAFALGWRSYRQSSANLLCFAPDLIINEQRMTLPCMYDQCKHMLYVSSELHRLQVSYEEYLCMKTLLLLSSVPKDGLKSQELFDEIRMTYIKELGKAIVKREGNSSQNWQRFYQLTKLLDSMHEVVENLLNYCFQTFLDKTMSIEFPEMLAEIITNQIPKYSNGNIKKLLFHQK
Assay: Ligand binding assay (GR BIND)

{"columns": ["Compound", "Ki"],
 "data": [
  ["C[C@]12Cc3cnn(-c4ccc(F)cc4)c3C=C1CC[C@@H]2CN(CC#N)S(=O)(=O)c1ccccc1C(F)(F)F", "8.5 nM"],
  ["C[C@]12Cc3cnn(-c4ccc(F)cc4)c3C=C1CC[C@@H]2CN(CCO)S(=O)(=O)Cc1ccccc1C(N)=O", "14.3 nM"],
  ["Cc1noc(C)c1S(=O)(=O)N(CCO)C[C@H]1CCC2=Cc3c(cnn3-c3ccc(F)cc3)C[C@@]21C", "5 nM"],
  ["C[C@]12Cc3cnn(-c4ccc(F)cc4)c3C=C1CC[C@@H]2CN(CC#N)S(=O)(=O)Cc1ccccc1", "0.9 nM"],
  ["Cc1cc(S(=O)(=O)N(CC#N)C[C@H]2CCC3=Cc4c(cnn4-c4ccc(F)cc4)C[C@@]32C)c(C)cc1Cl", "8.4 nM"],
  ["Cc1cc(S(=O)(=O)N(CC#N)C[C@H]2CCC3=Cc4c(cnn4-c4ccc(F)cc4)C[C@@]32C)c(C)o1", "8.8 nM"],
  ["C[C@]12Cc3cnn(-c4ccc(F)cc4)c3C=C1CC[C@@H]2CN(CC1CC1)S(=O)(=O)/C=C/c1ccccc1", "0.6 nM"],
  ["C[C@]12Cc3cnn(-c4ccc(F)cc4)c3C=C1CC[C@@H]2CN(CC1(O)CCCCC1)S(=O)(=O)c1ccccc1F", "2.3 nM"],
  ["CC(C1CCC2=Cc3c(cnn3-c3ccc(F)cc3)C[C@@]21C)N(CC1CC1)S(=O)(=O)CC(F)(F)F (some centres unmarked)", "2.1 nM"],
  ["C[C@]12Cc3cnn(-c4ccc(F)cc4)c3C=C1CC[C@@H]2CN(CC(O)c1ccccn1)S(=O)(=O)CC(F)(F)F (some centres unmarked)", "0.9 nM"],
  ["Cc1oncc1S(=O)(=O)N(CC#N)C[C@H]1CCC2=Cc3c(cnn3-c3ccc(F)cc3)C[C@@]21C", "4.9 nM"],
  ["Cn1nc(C(F)(F)F)cc1-c1ccc(S(=O)(=O)N(CCO)C[C@H]2CCC3=Cc4c(cnn4-c4ccc(F)cc4)C[C@@]32C)s1", "13.4 nM"],
  ["CC(C1CCC2=Cc3c(cnn3-c3ccc(F)cc3)C[C@@]21C)N(CCc1ccccc1F)S(=O)(=O)CC(F)(F)F (some centres unmarked)", "2.7 nM"],
  ["COc1ccccc1CCN(C[C@H]1CCC2=Cc3c(cnn3-c3ccc(F)cc3)C[C@@]21C)S(=O)(=O)CC(F)(F)F", "1.3 nM"]
]}

Entry source: patent US8299048B2
